Tested on: cats
Experiment: 2-bottle taste choice test, cat water panel, 18-h exposure
Type: in vivo, domestic cat (Felis catus)
Settings: amino acid 25 mM versus water
reported_property: Intake diff. (g)
Quick reminder: number only, in g, skip the unit.

N[C@@H](CS)C(=O)O :: 48.3
CC(C)C[C@H](N)C(=O)O :: 36.6
N[C@@H](Cc1ccccc1)C(=O)O :: 34.5

Kindly note the recorded Intake diff. for C[C@H](N)C(=O)O [L-Alanine, reference compound] , which is 30.5

Kindly note the recorded Intake diff. for N[C@@H](Cc1c[nH]c2ccccc12)C(=O)O , which is 8.4

Kindly note the recorded Intake diff. for CSCC[C@H](N)C(=O)O , which is 35.8
